Hey, just so you know, these numbers are from PubChem BioAssay AID1159580.

- assayOverview: chemical genetic growth profiling, strain panel (AID 1159580)
- measurementParameters: S. cerevisiae deletion strains, growth OD, locus YPL078C, strain atp4
In all, about 5,500 compounds went through this assay and about 2,000 (36%) were called active. About 18% were inconclusive and are not listed. Rule as the data show it: active = normalized growth mostly below about 0.91 (no sharp cut-off); inconclusive = no clear call, values can overlap the other calls; inactive = mostly above about 0.92. The other results are listed elsewhere or left out.
Classes used: T = active, F = inactive

>  <compound>
Cc1ccc(C(C)C)cc2c(C)ccc1-2

>  <classAssignment>
F

$$$$
>  <compound>
CC[C@]12CCCN3CCc4c(n(c5ccccc45)[C@](O)(C(=O)OC)C1)[C@@H]32

>  <classAssignment>
F

$$$$
>  <compound>
CCCN(CCC)C(=O)C(CCC(=O)O)NC(=O)c1ccccc1 (stereo not drawn)

>  <classAssignment>
F

$$$$
>  <compound>
C#C[C@]1(O)CCC2C3CCc4cc(O)ccc4C3CC[C@@]21C (stereo partly drawn)

>  <classAssignment>
F

$$$$
>  <compound>
CC12CCC3C(CC=C4CC(O)CCC43C)C1CCC2=O (stereo not drawn)

>  <classAssignment>
T

$$$$
>  <compound>
C[C@](N)(Cc1ccc(O)cc1)C(=O)O

>  <classAssignment>
F

$$$$
>  <compound>
Nc1nccs1

>  <classAssignment>
F

$$$$
>  <compound>
C=CCc1cc(OC)c2c(c1OC)OCO2

>  <classAssignment>
F

$$$$
>  <compound>
COc1cc(/C=C/C(=O)O)cc(OC)c1OC

>  <classAssignment>
F

$$$$
>  <compound>
C[C@]12CCC3c4ccc(OS(=O)(=O)O)cc4CCC3C1CCC2=O (stereo partly drawn)

>  <classAssignment>
F

$$$$
>  <compound>
CC1=C(/C=C/C(C)=C/C=C/C(C)=C\C(=O)O)C(C)(C)CCC1

>  <classAssignment>
F

$$$$
>  <compound>
OC1CCCCC1N1CCC(c2ccccc2)CC1 (stereo not drawn)

>  <classAssignment>
F

$$$$
>  <compound>
Nc1ccc(S(=O)(=O)Nc2nccs2)cc1

>  <classAssignment>
F

$$$$
>  <compound>
C[C@@H]1C[C@@H]([C@H](O)CC2CC(=O)NC(=O)C2)C(=O)[C@@H](C)C1

>  <classAssignment>
T

$$$$
>  <compound>
O=C(O)c1cc(=O)c(O)c2c(O)c(O)ccc2c1

>  <classAssignment>
F

$$$$
>  <compound>
CCOC(=O)CCCCCCCCCCCCC1C=CCC1 (stereo not drawn)

>  <classAssignment>
F

$$$$
>  <compound>
C[C@](N)(Cc1ccc(O)c(O)c1)C(=O)O

>  <classAssignment>
F

$$$$
>  <compound>
CN1CCc2cccc3c2C1Cc1ccc(O)c(O)c1-3 (stereo not drawn)

>  <classAssignment>
F

$$$$
>  <compound>
C=CC1=C(C)/C(=C/c2[nH]c(Cc3[nH]c(/C=C4\NC(=O)C(C)=C4C=C)c(C)c3CCC(=O)O)c(CCC(=O)O)c2C)NC1=O

>  <classAssignment>
F

$$$$
>  <compound>
O=C(O)CCCCC1SCC2NC(=O)NC21 (stereo not drawn)

>  <classAssignment>
F

$$$$
>  <compound>
NC(=O)c1ccc(N)nc1

>  <classAssignment>
F

$$$$
>  <compound>
COc1ccc(/C=C/C(=O)c2cc(O)ccc2O)cc1

>  <classAssignment>
T

$$$$
>  <compound>
O=C(NC(=O)c1c(F)cccc1F)Nc1cc(Cl)c(OC(F)(F)C(F)C(F)(F)F)cc1Cl (stereo not drawn)

>  <classAssignment>
F

$$$$
>  <compound>
O=C1O[C@@H](CO)[C@H](O)[C@@H](O)[C@@H]1O

>  <classAssignment>
F

$$$$
>  <compound>
CC1=C(/C=C/C(C)=C/C=C/C(C)=C/CO)C(C)(C)CCC1

>  <classAssignment>
F

$$$$
>  <compound>
COc1ccc(/C=C/C(=O)c2ccc(O)cc2O)cc1

>  <classAssignment>
T

$$$$
>  <compound>
CCOC(=O)C1=C[C@]2(CC)CCCN3CCc4c(n1c1ccccc41)[C@@H]32

>  <classAssignment>
F

$$$$
>  <compound>
CC(=O)O[C@H]1C[C@@H](OC(C)=O)C(C)(C)C2C[C@@H](OC(C)=O)[C@]3(C)C(CC[C@@]4(C)[C@H](c5ccoc5)C(=O)[C@H]5O[C@]543)[C@]21C (stereo partly drawn)

>  <classAssignment>
F

$$$$
>  <compound>
CC1=C(/C=C/C(C)=C/C=C/C(C)=C/C(=O)O)C(C)(C)CCC1

>  <classAssignment>
F

$$$$
>  <compound>
COc1ccc2c(c1O)-c1c(OC)c(OC)cc3c1[C@H](C2)N(C)CC3

>  <classAssignment>
F

$$$$
>  <compound>
CCC(COC(=O)c1cc(OC)c(OC)c(OC)c1)(c1ccccc1)N(C)C (stereo not drawn)

>  <classAssignment>
F

$$$$
>  <compound>
CC1(C)C2CC(=O)O[C@@]3(C)C4=CC(=O)O[C@@H](c5ccoc5)[C@]4(C)CCC3[C@@]2(C)C=C[C@H]1O (stereo partly drawn)

>  <classAssignment>
F

$$$$
>  <compound>
CC1=CC(=O)CC(C)(C)C1(O)/C=C/C(C)=C\C(=O)O (stereo not drawn)

>  <classAssignment>
F

$$$$
>  <compound>
Cc1cccc(CN2CCN(C(c3ccccc3)c3ccc(Cl)cc3)CC2)c1 (stereo not drawn)

>  <classAssignment>
T

$$$$
>  <compound>
CC[C@@H](C(=O)[C@@H](C)[C@@H](O)[C@H](C)[C@@H]1O[C@@H]([C@@H](CC)C(=O)O)CC[C@@H]1C)[C@H]1OC2(C=C[C@@H](O)[C@]3(CC[C@@](C)([C@H]4CC[C@](O)(CC)[C@H](C)O4)O3)O2)[C@H](C)C[C@@H]1C (stereo partly drawn)

>  <classAssignment>
F

$$$$
>  <compound>
CC1=C(/C=C/C(C)=C/C=C/C(C)=C/C=C/C=C(C)/C=C/C=C(C)/C=C/C2=C(C)CCCC2(C)C)C(C)(C)CCC1

>  <classAssignment>
F

$$$$
>  <compound>
COc1ccc(/C=C/C(=O)O)cc1OC

>  <classAssignment>
F

$$$$
>  <compound>
CC[C@]12CCCN3CCc4c(n(c5ccccc45)C(=O)C1)[C@@H]32

>  <classAssignment>
F

$$$$
>  <compound>
CCOC(=O)C(C)(N)Cc1ccc(O)c(O)c1 (stereo not drawn)

>  <classAssignment>
F

$$$$
>  <compound>
CC(=O)O[C@H]1CC[C@@]2(C)C(=CCC3C2CC[C@@]2(C)C3CC[C@@H]2C(C)CCCC(C)C)C1 (stereo partly drawn)

>  <classAssignment>
F

$$$$
>  <compound>
COc1cc(/C=C/C(=O)O)ccc1O

>  <classAssignment>
F

$$$$
>  <compound>
CC(=O)O[C@H]1CC[C@@]2(C)C(=CCC3C2CC[C@]2(C)C(=O)CCC32)C1 (stereo partly drawn)

>  <classAssignment>
T

$$$$
>  <compound>
COc1ccc(CN(CCN(C)C)c2ncccn2)cc1

>  <classAssignment>
F

$$$$
